This collection of values is drawn from PubChem BioAssay AID1919007.

# Tested on: A498 complex spheroids with HUVEC/MSC, growth
# protocol.description: Anticancer human tumor A498 cell line growth inhibition [AhR]; active = viability on the fitted dose curve at most 10% of control; inactive = the rest;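 also: luminescence signal used as a surrogate for viable cells; seven day exposure starting three days after spheroid seeding; luminescence viability scaled so 100% equals DMSO vehicle wells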
# measurement.conditions: second compound 0.1 µM; first compound 0.0949 µM
Pick from active, inactive when you respond.

In: Give the logged outcome of this assay for the following compound: O=C(C=Cn1cnc(-c2cc(C(F)(F)F)cc(C(F)(F)F)c2)n1)NNc1cnccn1 + Cc1cncc(-c2nc(NCCc3c[nH]c4ccccc34)c3ncn(C(C)C)c3n2)c1
Out: inactive

In: Please let me know the test result on file for CC(C)CC(NC(=O)C(Cc1ccccc1)NC(=O)c1cnccn1)B(O)O (stereo not drawn) + CC(CO)NC(=O)c1cc(-c2ccc(Cl)cc2)nn(-c2cnn(C)c2)c1=O .
Out: active

Next item in the queue.
In: Would you mind telling me which call this test gave CC(C)CC(NC(=O)C(Cc1ccccc1)NC(=O)c1cnccn1)B(O)O (stereo not drawn) + Cc1ccccc1N=Nc1ccc(NC(=O)c2ccnn2C)c(C)c1 ?
Out: active

----------
# Test system: A498 complex spheroids with HUVEC/MSC, growth
# protocol.description: Anticancer human tumor A498 cell line growth inhibition [AhR];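 also: luminescence signal used as a surrogate for viable cells; seven day exposure starting three days after spheroid seeding; luminescence viability scaled so 100% equals DMSO vehicle wells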
# measurement.conditions: second compound 3.16 µM; first compound 0.00949 µM; hits give low values
result.type: viability, T/C

Previously resolved entries follow.
In: Please look at this compound and report its viability, T/C: CC(C)CC(NC(=O)C(Cc1ccccc1)NC(=O)c1cnccn1)B(O)O (centres undefined) + CC(CO)NC(=O)c1cc(-c2ccc(Cl)cc2)nn(-c2cnn(C)c2)c1=O
Out: 5.03%

In: Look up viability, T/C of CCN(c1cc(-c2ccc(CN3CCOCC3)cc2)cc(C(=O)NCc2c(C)cc(C)[nH]c2=O)c1C)C1CCOCC1 + Cc1ccccc1N=Nc1ccc(NC(=O)c2ccnn2C)c(C)c1 and report it.
Out: 86.7%

In: Return reported viability, T/C. Input compound: Nc1ncn(C2CC(O)C(CO)S2)c(=O)n1 (centres undefined) + Cc1cncc(-c2nc(NCCc3c[nH]c4ccccc34)c3ncn(C(C)C)c3n2)c1
Out: 36.5%

Proceeding to the next compound to report its viability, T/C.
In: Specify measured viability, T/C for Nc1ncn(C2CC(O)C(CO)S2)c(=O)n1 (centres undefined) + Cc1ccccc1N=Nc1ccc(NC(=O)c2ccnn2C)c(C)c1 .
Out: 97.4%

----------
# System: A498 complex spheroids with HUVEC/MSC, growth
# protocol.description: Anticancer human tumor A498 cell line growth inhibition [AhR];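 also: luminescence signal used as a surrogate for viable cells; seven day exposure starting three days after spheroid seeding; luminescence viability scaled so 100% equals DMSO vehicle wells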
# measurement.conditions: second compound 0.316 µM; first compound 0.01 µM; hits give low values
result.type: viability, T/C (%)
Field: numeric (%). Do not append units.

Consider the reported viability, T/C for these compounds:
In: Give the reported viability, T/C for this compound. Nc1ncn(C2CC(O)C(CO)O2)c(=O)n1 (configuration not stated) + CC(CO)NC(=O)c1cc(-c2ccc(Cl)cc2)nn(-c2cnn(C)c2)c1=O
Out: 97.2

In: Look up and state reported viability, T/C for CC[C@@]1(O)C(=O)OCc2c1cc1n(c2=O)Cc2cc3c(CN(C)C)c(O)ccc3nc2-1 + Cc1ccccc1N=Nc1ccc(NC(=O)c2ccnn2C)c(C)c1
Out: 81

In: Return value of viability, T/C for input CC[C@@]1(O)C(=O)OCc2c1cc1n(c2=O)Cc2cc3c(CN(C)C)c(O)ccc3nc2-1 + CC(CO)NC(=O)c1cc(-c2ccc(Cl)cc2)nn(-c2cnn(C)c2)c1=O , no commentary.
Out: 82.4

In: Indicate its recorded viability, T/C; the compound in question is CC[C@@]1(O)C(=O)OCc2c1cc1n(c2=O)Cc2cc3c(CN(C)C)c(O)ccc3nc2-1 + Cc1cncc(-c2nc(NCCc3c[nH]c4ccccc34)c3ncn(C(C)C)c3n2)c1
Out: 83.1

In: # return recorded viability, T/C for input CC1COCCN1c1cc(-c2ccnn2C)c2ccnc(-c3ccn[nH]3)c2n1 (configuration not stated) + Cc1cncc(-c2nc(NCCc3c[nH]c4ccccc34)c3ncn(C(C)C)c3n2)c1
Out: 103

Continuing:
In: For Nc1ncn(C2CC(O)C(CO)O2)c(=O)n1 (configuration not stated) + Cc1ccccc1N=Nc1ccc(NC(=O)c2ccnn2C)c(C)c1 , write its viability, T/C.
Out: 97.5

In: Return reported viability, T/C. Input compound: Cn1ncnc1C1c2n[nH]c(=O)c3cc(F)cc(c23)NC1c1ccc(F)cc1 (configuration not stated) + CC(CO)NC(=O)c1cc(-c2ccc(Cl)cc2)nn(-c2cnn(C)c2)c1=O
Out: 88.5

In: Give the value of viability, T/C reported for the following: CC1COCCN1c1cc(-c2ccnn2C)c2ccnc(-c3ccn[nH]3)c2n1 (configuration not stated) + Cc1ccccc1N=Nc1ccc(NC(=O)c2ccnn2C)c(C)c1
Out: 86.6

In: For the compound Nc1ncn(C2CC(O)C(CO)O2)c(=O)n1 (configuration not stated) + Cc1cncc(-c2nc(NCCc3c[nH]c4ccccc34)c3ncn(C(C)C)c3n2)c1 , report viability, T/C.
Out: 94.5
